Test: Permeability of carbon 14-labelled acamprosate with promoting agents in the Caco-2 cellular model (diffusion chamber)
Assay type: in vitro ADME, human
Details: human, Caco-2; acamprosate solution, promoting agent: None; apical to basolateral; read-out: Papp, Mean (n = 6)
property label: Papp A→B (×10⁻⁶ cm/s)
Supply the numeric figure in ×10⁻⁶ cm/s, leaving out any unit text.

## Input I'd like to know its Papp A→B. The compound in question is CC(=O)NCCCS(=O)(=O)O [acamprosate, reference compound]
## Output 2.4
